TEST_DESCRIPTION: yeast display, Sf9 membrane polyspecificity reagent, FACS + sequencing; frameworks hold sequencing errors
METRIC: polyreactivity (PSR sort gate)

SEQUENCE_CODE	polyreactivity (PSR sort gate)
QVQLVESGGGLVQAGGSLRLSCAASGFIFKSYAMGWYRQAPGKERELVAAISGRGGSTYYADSVKGRFTISRDNAKNTVYLQMNSLKPEDPAVYYCNVGPSTYYQYDYWGQGTQVTVSS	high polyreactivity
QVQLVESGGGLVQAGGSLRLSCAASGSTFGGYAMGWYRQAPGKERELVAGISSGTSTYYADSVKGRFTISRDNAKNTVYLQMNSLKPEDTAVYYCAKYSYYRKLGYWGQGTQVTVSS	high polyreactivity
QVQLVESGGGLVQAGGSLRLSCAASGITFGRNTKGWYRQAPGKERELVAAIDSGGNTYADSVKGRFTISRDNAKNTVYLQMNSLKPEDTAVYYCAADSYPAYLGFVGFDYWVQGTQVTVSS	low polyreactivity
QVQLVESGGGLVQAGGSLRLSCAASGFTLGWYAMGWYRQAPGKERELVAAISRSGGSTYYADSVKGRFTISRDNAKNTVYLQMNSLKPEDTAVYSCAAEVNYAGWAVWSYYWGQGTQVTVSS	high polyreactivity

# get_value(readout='polyreactivity (PSR sort gate)', item= QVQIVESGGGLVQAGGSLRLSCAASGSIFSRYAMGWYRQAPGKERELVAAISGRGGGTYYADSVKGRFTISRDNAKNTVYLQMNSLKPEDTAVYYCAAQLGRPAYSRVSWRAYYYWGQGTQVTVSS ) low polyreactivity

---

TEST_DESCRIPTION: yeast display, Sf9 membrane polyspecificity reagent, FACS + sequencing; frameworks hold sequencing errors
METRIC: polyreactivity (PSR sort gate)

Before answering, review these 4 worked examples.
SEQUENCE_CODE	REPORTED_VALUE
QVQLVESGGGLVQAGGSLRLSCAASGSIFGPNAMGRSRQAPGKERELVAAISWVGGSTYYADSVKGRFTISGDIAKNTVYLQMNSLKPEDTAVYYCNASGYHDTALRYDYWGQGTQVTVSS	low polyreactivity
QVQLVESGGGLVQAGGSLRLSCAASGRTFVYNTMGWYRQAPGKERELVASISSTGGNTYYSDSVKGRFTISRDNAKNTVYLQMNSLKPEDTAVYYCAAGAWTRGQYYYWGQRTQVTVSS	high polyreactivity
QVQLVESGGGLVQAGGSLRLSCAASGRTFEQYAMGWYRQARGKERELVAAISGSGGSTFYADSVKGRFTISRDNAKNTVYLQMNSLKPEDTAVYYCNAPGDGYLYDHTYDYWGQGTQVTVSS	low polyreactivity
QVQLVESGGGLVQAGGSLRLSCAASGSTFREYAMGWYIQAPGKERELVAAITSRGGSTYYADSVKGRFTISRDNAKNTVYLQMNSLKPEDTAVYYCAADHGTKAEYYYWGQRTQVTVSS	high polyreactivity

Turning now to a further sequence:
Which polyreactivity (PSR sort gate) reading was recorded for the sequence QVQLVESGGGLVQAGGSLRLSCAASGRIFGYNAMGWYRQAPGKERELVATISSGGGTNYADSVKGRFTISRDNAKNTVYLQMNSLKPEDTAVYYCNARIVYYYKRYTRDYEYWGQGTQVTVSS ? low polyreactivity

---

TEST_DESCRIPTION: yeast display, Sf9 membrane polyspecificity reagent, FACS + sequencing; frameworks hold sequencing errors
METRIC: polyreactivity (PSR sort gate)

Example entries and their recorded answers appear below.
In [3]: df
Out[3]:
                              sequence_code                          metric       reported_value
0  QVQLVESGGGLVQAGGSLRLSCAASGYTFLGYAMGWSRQAPGKERELVAAIRRSGGRTYYADSVKGRFTISRDNAKNTVYLQMNSLKPEDTAVYYCAKGYVGEYDYWGQGTQVTVSS  polyreactivity (PSR sort gate)  high polyreactivity
1  QVHLVESGGGLVQVGGSLRLSCAASGSIFRWYAMGWYRQAPGKERELVAAISSSVGRTYYADSVKGRFTISRDNAKNTVYLQMNSLKPEDTAVYYCAVRYSVVYGTYYYWGQGTKVTVSS  polyreactivity (PSR sort gate)  high polyreactivity
2  QVQLVESGGGLVQAGGSLGLSSAASGRTFGVYAMGWYRQAPGKERELVAGIRWRGGSTYYADSVKGRFTISRDNAKNTVYLQMNSLKPEDTAVYYCAADVYLVKYDYWGQGTQVTVSS  polyreactivity (PSR sort gate)   low polyreactivity
3  QVQLVESGGGLVQAGGSLRLSCAASGRIFYFYAMGWYRQAPGKERELVASISYSGGNTYYADSVKGRFTISRDNAKNTVYLQMNSLKPEDNAVYYCNVLPNTGARGYYYWGQGTQVTVSS  polyreactivity (PSR sort gate)   low polyreactivity

As a next step, examine the sequence that follows.
I'd like to know its polyreactivity (PSR sort gate). The sequence in question is QVQIVESGGGLVQAGGSLRLSGAASGRTFRPYTMGWYRPAPGKERELVARITSGGSTNYADSVKWRFTISRDNAKITVYLQMNSLKPEDTAVYYCNKPGYRLRLDDDYWGQGTQVTVSS low polyreactivity

---

TEST_DESCRIPTION: yeast display, Sf9 membrane polyspecificity reagent, FACS + sequencing; frameworks hold sequencing errors

SEQUENCE_CODE	polyreactivity (PSR sort gate)
QVQLVESGGGLVQAGGSLRLSCAASGSTFLGYVMGWYRQAPGKEREFVAAITWSVGSTYYADSVKGRFTISRDNAKNTVYLQMNSLKPEDTAVYYCAVRWVYANIYPDMEYWGQGTKVTVSS	low polyreactivity
QVQLVESGGGLVQAGGSLRFSCGGWGSISEVYAMGWYRPAPGKERELVAAITSGASTNYADSVNGRFTISRDNAKNTVYLQMNSLKPEDTAVYYCAADSDSQWGMDYWGQGTQVTVSS	low polyreactivity

---

TEST_DESCRIPTION: yeast display, Sf9 membrane polyspecificity reagent, FACS + sequencing; frameworks hold sequencing errors
METRIC: polyreactivity (PSR sort gate)

Sample answers from the record:
SEQUENCE_CODE	REPORTED_VALUE
QVQLVESGGGLVQAGGSLRLSCAASGRIFVVNAMGWYRQAPGKERELVAAISSSSDSTYYADSVKGRFTISRDNAKNTVYLQMNSLKPEDTAVYYRAADYHYDGYWIYDYWGLGTQVTVSS	high polyreactivity
QVQLVESGGGLVQAGGSLRLSCAASGIIFGWYAMGWYRQAPGTERELVADISSDDSTYYADSVKGRFTISRDNAKNTVYLQMNSLKPEDTAVYDCAAETEYYSYRFDYWGQGTQVTVSS	high polyreactivity
QVQLVESGGGLVQAGGSLRLRCAASGTNSVQYAMGGYRQAPGKERELVAAIDRSGGSTSYADSVKGRFTISRDNAKNTVYLQMNSLKQEDTAVYYCNADPFRSTYSYDYWGQGTQVTVSS	low polyreactivity
QVHLVESGGGLVQAGGSLRLSCAASGGIFSYYALGWYRQAPGKERELVAAISSGGTTYYADSVKGRFTISRDNAKNTVYLQMNSLKPEDTAVYYCALLVGHNYWGQGTQVTVSS	low polyreactivity
QVQLVESGGGLVQAGGSLRLSCAASGRIFYANAMGWYRQAPGKERELVAAISSGGSTYYADSVKGRFTISRDNAKNTVYLQMNSLKPEDTAVYYCAALYWVYFYSEYGPWRYDYWGQGTQVTVSS	low polyreactivity
QVQLVESGGGLVQAGGSLRLSCASSGLTFKQYAMVWYRQAPGKERELVAAITVSGGDTYYADSVKGRFTISRDNAKNTVYLQMNSLKPEDTAVYYCAAEHFFWGYDYWGQGTQVTVSS	high polyreactivity
QVQLVESGGGLVQAGGSLRLSCAASGIIFSFNAMGWYRQAPGKERELVAAITWRDGSTYYADSVKGRFTISRDNAKNTVYLQMNSLKPEDTAVYYCNADLLDISSYDGMDYWGQGTQVTVSS	low polyreactivity
QVQLVESGGGLVQAGGSLRLSCAASGSTFIFNAMGWYRQAPGKERELVAGISSGSPYYADSVKGRFTISRDNAKNTVYLQMNSLIPEDTAVYYCATKLRRWRFYAAYDYWGQGTQVTVSS	high polyreactivity

// lookup polyreactivity (PSR sort gate) for QVQLVESGVGLVQAGGSLRLSCAASGRIVWGYAMGWYRQAPGKERELVATITRGGSTNYADSVKGRFTISRDNAKHTVYLQMNSLKPEDTAVYYCARDWGKSEYDYWGQGTQVTVSS high polyreactivity

Endpoint output: polyreactivity (PSR sort gate) of QVQLVESGGGLVQAGGSLRLSCAASGRIFQKYAMVWYRQAPGKERELVAAISSGDSTYADSVKGRFSISRDNAKNTVYLQMNSLKPEDTAVYYCAGDLYDPWWYSYMGEYEYWGQGTQVTVSS . Value? low polyreactivity

---

TEST_DESCRIPTION: yeast display, Sf9 membrane polyspecificity reagent, FACS + sequencing; frameworks hold sequencing errors
METRIC: polyreactivity (PSR sort gate)

SEQUENCE_CODE	REPORTED_VALUE
QVQLVESGGGLVQAGGSRRLSCAASGSTFYGYAMGWYRHAPGKEREFVAAITTSGGSTYYADSVKGRFTISRDNAKNTVYLQMNSLKPEDTAVYYCAADGFYYDDGYWGQGTQVTVSS	low polyreactivity
QVQLVESGGGLVQAGGSLRLSCAASGRTSVKYAMGWSRQAPGKERELVATIRYRTASTYYADSVKGRFTISRDNAKNTVYLQMNSPKPEDTAVYYCAAATSYASPWWYLYYYWGQGSQVTVSS	high polyreactivity
QVQLVESGGGLVQAGGSLRLSCAASGRTFNWYTMGWYRQAPGKERELVARINGRGGSTYYADSVKGRFTISRDNAKNTVYLQMNSLKPEDTAVYYCAADLHKLARYDYWGQGTQVTVSS	high polyreactivity
QVQLVESGGGLVQAGGSLRLSCAASGRIFFRYVMGWYRQAPGKERELVAAISSGGRTYYADSVKGRFTISRDNAKNTVYLQMNSLKPEDTAVYYCAADLLLYSSQDNDYWGQGTQVTVSS	low polyreactivity
QVQLVESGGGLVQAGGSLRLSCAASGRTFGVYAMGWYRQAPGKERELVAGIRWRGGSTYYADSVKGRFTISRDNAKNTVYLQMNSLKPEDTAVYYWAARVQFPYPDYAWITVLYDYWGQCTQVTVSS	low polyreactivity

Requested read-out: polyreactivity (PSR sort gate). Entry: QVQLVESGGGLVQAGGSLRLSCAASGRIFKRYVMGWYRQAPGKERELVSAISVRGASTYYADSVKGRFTISRDNAKNTVYLQMNSLKPEDTAVYYCATAGYRLLDYWGQGTQVTVSS high polyreactivity

Which polyreactivity (PSR sort gate) reading was recorded for the sequence QVQLVESGGGLVQAGGSLRLSCAASGRTFGKYAMGWYRQAPRKEREFFAAISRSGGNTYYADTVKGRFTISRDNAKNTVYLQMTSLIPEDTAVYYCARGLSTYVLSHGLEYRTYFYWGQGTQVTVSS ? high polyreactivity

Endpoint output: polyreactivity (PSR sort gate) of QVQLVESGGGLVQAGGSLRLSCAASGRIFRGYTMGWYRQAPGKERELVAAISRSTGSTNYADSVKGRFTISRDNAKNTVYLQMNSLKPEDTAVYYCAATVSPSYDYWGQGTQVTVSS . Value? high polyreactivity

polyreactivity (PSR sort gate) for QVQLVESRGGVVQAGGSLRLSSAASGTFVYAMGWYRQAPGKERELVAAISYSGGSTYYADSVKGRFTISRDNAKNTVYLQMNSLKPEDTAVYYCAARTTLSYGYDYWGQGTQVTVSS ? high polyreactivity

// polyreactivity (PSR sort gate) lookup, key: QVQLVESGGGLVQAGGSLRFSCAASGFIFRYYAMGWYRQAPGKERELVAAIDYSGGSTIYADSVKGRFTISRDNAKNTVYLQMNSLKPEDTAVYYCNAEYTWHRGYDYWGQGTQVTVSS low polyreactivity

Which polyreactivity (PSR sort gate) is listed for QVHLVESGGGLFQAGGSLPLSCAASGYIFVRYAKGWYRQAPGKEREFVAAISSSGGSTRYADSVKARFTLSRDNAKNTVYLQMNSLKPEDTAVYYGAATRVARHGSPMYYWGQGTQVTVSS ? high polyreactivity

Return reported polyreactivity (PSR sort gate); argument: QVQLVESGGGLVQAGGSLRLSCAASGSTFPLYVMGWYRQAPGKERELVAAIDWSGGSTYYADSVKGRFTISRDTAKNTVYLQMNSLKPEDTAVYYCAADSPNSWRMDYWGQGTQVTVSS low polyreactivity

I'd like to know its polyreactivity (PSR sort gate). The sequence in question is QVQLVESGGGLVQAGGSLRLSCAASGFIFTNVMGWYRQAPGKERELVAAISGRGTSTYYADSVKGRFTISRDNAKNTVYLQMNSLKPEETAVYYCAAASYQSRYWNYYWGQGTQVTVSS high polyreactivity

Reported polyreactivity (PSR sort gate), sequence QVQLVESGGGLVQAGGSLRLSCAASGLIFYTYAMGWYRQAPGKERELVADINRSDGSTYYADSVKGRFTISRDNAKNTVYLQMNRLKPEDTAVYYCAVVGPYYSRFGGRYYYWGQGTQVTVSS : ____ low polyreactivity

polyreactivity (PSR sort gate) lookup needed for QVQLVESGGGLVQAGGSLRLICAASGSTFDQNVMGWYRQAPGKDRELVGTINFSGDSTYYADSVKGRFTISRDNAKNTVYLQMNSLKPEDPAVYYCAVDWGEYIDTSVKRDISYYWGQGTQVTVSS , thanks. low polyreactivity

What measured polyreactivity (PSR sort gate) goes with QVQRVESGGGLVQAGGSLRLSCAASGRTFPPYAMGWYRQAPGKERELVASIRRGGSTHYADSVKGRFTISRDNAKNTVYLQMNSLKPEDTAVYYCNADVIFGYTHYNYWGQGTQVTVSS ? high polyreactivity

Given the sequence QVQLVESGGGLVQAGGSLRISCAASGFIFQYNTMGWYRQAPGKERELVAVITRTGSTNYADSVKGRFTISRDNAKNTVYLQMNSLKPEDTAVYFCATSFYSRPRKARYYYWGQGTQVTVSS , what is its reported polyreactivity (PSR sort gate)? high polyreactivity
